Test system: L1210 leukemia ip in BDF1 mice, survival T/C
Experiment: NCI In Vivo Anticancer Drug Screen. Data for tumor model L1210 Leukemia (intraperitoneal) in B6D2F1 (BDF1) mice
Conditions: endpoint: mean survival time; dose: 400.0 mg/kg/injection; schedule: Q04DX003 (ip); vehicle: saline; higher = longer survival
Protocol: The antitumor activity of compounds was measured in mice bearing transplantable tumors. Survival or tumor size were measured and the results are expressed as the measurement made in the treated group (T) divided by the measurement made in the vehicle treated control group (C). The tumor model used in this assay is L1210 Leukemia (intraperitoneal) in B6D2F1 (BDF1) mice
Inconclusive results and toxic doses are left out.
measurement-kind: T/C

Input O=C(O)C1(C(=O)O)CC23CCC2(C1)CC(C(=O)O)(C(=O)O)C3 (centres undefined) , output reported T/C.
103 % of control

Input OCC(O)Cc1ccccc1 (centres undefined) , output reported T/C.
101 % of control

Input "OC(c1ccccc1)(c1ccccc1)C(F)(Cl)Cl" , output reported T/C.
90 % of control

Input OC(c1ccccc1)(c1ccccc1)C1CCCCC1=C(c1ccccc1)c1ccccc1 (centres undefined) , output reported T/C.
96 % of control

Input O=C(O)C1CC2C3CC(C(=O)O)C(C3)C2C1 (centres undefined) , output reported T/C.
96 % of control

Input "CC(=O)OCc1ccc(-n2c(C(F)(F)F)nc3nc(Cl)c(Cl)nc32)o1" , output reported T/C.
88 % of control

Input "CCCC1=CN(Cc2ccccc2)c2ccccc2C1" , output reported T/C.
93 % of control

Input "CNS(C)(=O)=O" , output reported T/C.
106 % of control

Input CNCC(O)c1ccccc1 (centres undefined) , output reported T/C.
100 % of control

Input "CCOC(=O)N(Cc1ccccc1)C1CC1" , output reported T/C.
102 % of control

Input "C=C=CC(C)(C)C" , output reported T/C.
100 % of control

Input Nc1ncnc2c1ncn2C1CC(O)C(CO)O1 (centres undefined) , output reported T/C.
93 % of control

Input "Nc1ccc(OCc2ccc(S(=O)(=O)F)c(Cl)c2)c(Cl)c1" , output reported T/C.
98 % of control

Input "CCOC(=O)c1cnc2c(OC)cccc2c1Cl" , output reported T/C.
98 % of control

Input "Oc1c(Br)cc(Br)cc1C=Nc1ccccc1.Oc1c(Br)cc(Br)cc1C=Nc1ccccc1.[Co]" , output reported T/C.
98 % of control

Input "O=[N+]([O-])c1ccc(/C=N/N2CCOCC2)s1" , output reported T/C.
102 % of control

Input "NC(=N\C1=NCCO1)/C(N)=N/C1=NCCO1" , output reported T/C.
97 % of control

Input "BrC1=C(Br)CCCC1" , output reported T/C.
93 % of control

Input "Nc1ncnn1Cc1ccccc1" , output reported T/C.
101 % of control
